# Test system: AMO-1 (Plasma Cell Myeloma)
# EXPERIMENT: combination Emax (second highest fraction inhibited in the dose matrix, 72 h); higher = more inhibition; extreme values may be limits of the assay
Kindly supply the reported combination Emax values for the records listed here.
Format: numeric value only, no unit, no commentary.

Ask: Provide only the value of recorded combination Emax for N#Cc1cnc(Nc2cc(NC[C@H]3CNCCO3)c(C(F)(F)F)cn2)cn1 [SRA737] + O=c1[nH]cc(F)c(=O)[nH]1 [5-Fluorouracil] (first compound max 10 µM, 7x7, partner max 20 µM)
Result: 0.882

Ask: Supply combination Emax value. Item: O=C(c1cc(Cc2n[nH]c(=O)c3ccccc23)ccc1F)N1CCN(C(=O)C2CC2)CC1 [Olaparib] + CN(CC[C@H](CSC1=CC=CC=C1)NC2=C(C=C(C=C2)S(=O)(=O)NC(=O)C3=CC=C(C=C3)N4CCC(CC4)[C@H](C5=CC=CC=C5C6=CC=C(C=C6)Cl)O)S(=O)(=O)C(F)(F)F)CCO [AZD4320] (first compound max 10 µM, 7x7, partner max 1 µM)
Result: 0.424

Ask: Tell me combination Emax reported for Cc1c2c(nn1C)CSCc1cc(n(C)n1)CSc1cc(c3ccccc3c1)OCCCc1c(C(=O)O)n(C)c3c-2c(Cl)ccc13 [AZD5991] + C[C@@H](Nc1cc(F)cc(F)c1)c1cc(C(=O)N(C)C)cc2c(=O)cc(N3CCOCC3)oc12 [AZD8186] (first compound max 1 µM, 7x7, partner max 3 µM)
Result: 1

Ask: Let me know recorded combination Emax for Cn1cnc2c(F)c(Nc3ccc(Br)cc3Cl)c(C(=O)NOCCO)cc21 [Selumetinib] + C=CCn1c(=O)c2cnc(Nc3ccc(N4CCN(C)CC4)cc3)nc2n1-c1cccc(C(C)(C)O)n1 [AZD1775] (first compound max 10 µM, partner max 1 µM) , thanks.
Result: 0.917

Ask: Using the record for Cc1c2c(nn1C)CSCc1cc(n(C)n1)CSc1cc(c3ccccc3c1)OCCCc1c(C(=O)O)n(C)c3c-2c(Cl)ccc13 [AZD5991] + CCN(CCO)CCCOc1ccc2c(Nc3cc(CC(=O)Nc4cccc(F)c4)[nH]n3)ncnc2c1 [AZD2811] (first compound max 1 µM, 7x7, partner max 1 µM) , state its measured combination Emax.
Result: 1

Ask: State its combination Emax: CS(=O)(=O)CCNCc1ccc(-c2ccc3ncnc(Nc4ccc(OCc5cccc(F)c5)c(Cl)c4)c3c2)o1 [Lapatinib] + C[C@@H](Oc1cc(-c2cnn(C3CCNCC3)c2)cnc1N)c1c(Cl)ccc(F)c1Cl [Crizotinib] (first compound max 10 µM, 7x7, partner max 10 µM)
Result: 0.958

Ask: Return combination Emax for the following compound: Cn1cnc2c(F)c(Nc3ccc(Br)cc3Cl)c(C(=O)NOCCO)cc21 [Selumetinib] + CC(C)n1c(=O)n(C)c2cnc3cc(F)c(-c4ccc(OCCCN5CCCCC5)nc4)cc3c21 [AZD1390] (first compound max 10 µM, 7x7, partner max 0.3 µM)
Result: 0.364

----------
# System: VA-ES-BJ (Other Solid Carcinomas);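 further: after 72 h of two-drug dosing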
# EXPERIMENT: Bliss excess, mean over the matrix (fraction); higher = more synergy
For each record, write down the corresponding Bliss excess.
# answer = number (no unit)

Ask: Supply Bliss excess value. Item: Cc1cc2ncnn2cc1Nc1ncc2c(n1)n(C1CCOCC1)c(=O)n2C [AZD7648] + CN(C)CCCOc1ccc(-c2ccc3ncc4c(c3c2)n(C2CCOCC2)c(=O)n4C)cn1 [AZD0156] (first compound max 10 µM, 7x7, partner max 1 µM)
Result: 0.0248

Ask: Output measured Bliss excess for this item: Cn1cnc2c(F)c(Nc3ccc(Br)cc3Cl)c(C(=O)NOCCO)cc21 [Selumetinib] + CC(C)n1c(=O)n(C)c2cnc3cc(F)c(-c4ccc(OCCCN5CCCCC5)nc4)cc3c21 [AZD1390] (first compound max 10 µM, 7x7, partner max 0.3 µM)
Result: -0.0471

Ask: Identify Bliss excess associated with the molecule CC1(C)CCC(CN2CCN(c3ccc(C(=O)NS(=O)(=O)c4ccc(NCC5CCOCC5)c([N+](=O)[O-])c4)c(Oc4cnc5[nH]ccc5c4)c3)CC2)=C(c2ccc(Cl)cc2)C1 [Venetoclax] + C[C@@H]1COCCN1C2=NC(=NC(=C2)C3(CC3)[S@](=N)(=O)C)C4=C5C=CNC5=NC=C4 [AZD6738] (first compound max 1 µM, 7x7, partner max 10 µM)
Result: -0.0185

Ask: Check the records and state Bliss excess for COc1nnc2ccc(N3CCC(c4ccc(OCCN5CCN(C)C(=O)[C@H]5C)cc4)CC3)nn12 [AZD5153] + Cc1c2c(nn1C)CSCc1cc(n(C)n1)CSc1cc(c3ccccc3c1)OCCCc1c(C(=O)O)n(C)c3c-2c(Cl)ccc13 [AZD5991] (first compound max 1 µM, 7x7, partner max 1 µM)
Result: -0.0174

Ask: Give the value of Bliss excess reported for the following: CC(=O)c1c(C)c2cnc(Nc3ccc(N4CCNCC4)cn3)nc2n(C2CCCC2)c1=O [Palbociclib] + CN(CC[C@H](CSC1=CC=CC=C1)NC2=C(C=C(C=C2)S(=O)(=O)NC(=O)C3=CC=C(C=C3)N4CCC(CC4)[C@H](C5=CC=CC=C5C6=CC=C(C=C6)Cl)O)S(=O)(=O)C(F)(F)F)CCO [AZD4320] (first compound max 10 µM, 7x7, partner max 1 µM)
Result: -0.0288

Ask: Answer with reported Bliss excess of Cc1cc2ncnn2cc1Nc1ncc2c(n1)n(C1CCOCC1)c(=O)n2C [AZD7648] + O=C(c1cc(Cc2n[nH]c(=O)c3ccccc23)ccc1F)N1CCN(C(=O)C2CC2)CC1 [Olaparib] (first compound max 10 µM, 7x7, partner max 10 µM)
Result: -0.0416

Ask: Read the entry Cn1cnc2c(F)c(Nc3ccc(Br)cc3Cl)c(C(=O)NOCCO)cc21 [Selumetinib] + C=CCn1c(=O)c2cnc(Nc3ccc(N4CCN(C)CC4)cc3)nc2n1-c1cccc(C(C)(C)O)n1 [AZD1775] (first compound max 10 µM, partner max 1 µM) and write its reported Bliss excess.
Result: -0.112

Reference source for all entries: the supplement of paper PMC11061612
